Condition context: in acetone, 293.15 K
Experimental endpoint: solubility (mole fraction)

* O=C(O)Cc1ccccc1Cl | 0.281

* * *

Condition context: in acetonitrile, 313.15 K
Experimental endpoint: solubility (mole fraction)

- O=C(O)Cc1ccccc1Cl: 0.272

* * *

Condition context: in acetonitrile, 285.65 K
Experimental endpoint: solubility (mole fraction)

* N=C(Nc1ccccc1)Nc1ccccc1 | 0.0131

* * *

Condition context: in isopropanol, 313.15 K
Experimental endpoint: solubility (mole fraction)

* O=C(O)Cc1ccccc1Cl | 0.446

* * *

Condition context: in toluene, 313.15 K
Experimental endpoint: solubility (mole fraction)

- O=C(O)Cc1ccccc1Cl: 0.153

* * *

Condition context: in ethanol, 278.15 K
Experimental endpoint: solubility (mole fraction)

* N=C(Nc1ccccc1)Nc1ccccc1 | 0.017

* * *

Condition context: in isobutanol, 275.65 K
Experimental endpoint: solubility (mole fraction)

- N=C(Nc1ccccc1)Nc1ccccc1: 0.0138

* * *

Condition context: in ethyl acetate, 288.15 K
Experimental endpoint: solubility (mole fraction)

- O=C(O)Cc1ccccc1Cl: 0.237

* * *

Condition context: in acetonitrile, 303.15 K
Experimental endpoint: solubility (mole fraction)

- O=C(O)Cc1ccccc1Cl: 0.199

* * *

Condition context: in ethanol, 283.15 K
Experimental endpoint: solubility (mole fraction)

• N=C(Nc1ccccc1)Nc1ccccc1 = 0.0192
